FYI, the data here is from ChEMBL document CHEMBL3137667.

Measured Hepatotoxicity (moderate) of individual entries
Experiment: Highest frequency of moderate liver toxicity observed during clinical trials, expressed as a percentage. [column '% BIOL' in source]
Settings: human
Please make sure the unit comes right after the number.

So, CCCC(C)(COC(N)=O)COC(=O)NC(C)C (stereo not drawn) [CARISOPRODOL] ? Its Hepatotoxicity (moderate) was 0%

New cases:
So, CCc1oc2ccccc2c1C(=O)c1cc(Br)c(O)c(Br)c1 [BENZBROMARONE] ? Its Hepatotoxicity (moderate) was 0%

So, CCCCCCCCCCC[C@@H](C[C@@H]1OC(=O)[C@H]1CCCCCC)OC(=O)[C@H](CC(C)C)NC=O [ORLISTAT] ? Its Hepatotoxicity (moderate) was 0%

So, C[C@H](CCc1ccccc1)NC[C@H](O)c1ccc(O)c(C(N)=O)c1 [DILEVALOL] ? Its Hepatotoxicity (moderate) was 2%

So, CC(=O)CCCCn1c(=O)c2c(ncn2C)n(C)c1=O [PENTOXIFYLLINE] ? Its Hepatotoxicity (moderate) was 0%

So, Fc1ccccc1C1=NCC(=S)N(CC(F)(F)F)c2ccc(Cl)cc21 [QUAZEPAM] ? Its Hepatotoxicity (moderate) was 0%

So, CCCN(CCC)C(=O)Cc1c(-c2ccc(Cl)cc2)nc2ccc(Cl)cn12 [ALPIDEM] ? Its Hepatotoxicity (moderate) was 0%

So, CN[C@@H]1[C@H](O)[C@H](NC)[C@H]2O[C@@]3(O)C(=O)C[C@@H](C)O[C@H]3O[C@@H]2[C@H]1O [SPECTINOMYCIN] ? Its Hepatotoxicity (moderate) was 0%

So, CC1=C(CC(=O)O)c2cc(F)ccc2/C1=C\c1ccc([S+](C)[O-])cc1 (stereo not drawn) ? Its Hepatotoxicity (moderate) was 14.9%

====

Conditions: human
VALUE_KIND: Hepatotoxicity (association with vascular disease)

So, NC1=NC(=O)C(c2ccccc2)O1 (centres undefined) ? Its Hepatotoxicity (association with vascular disease) was 0

So, CC(=O)N[C@H]1[C@@H](O[C@H]2[C@H](O)[C@@H](O)[C@H](O[C@H]3[C@H](CS(=O)(=O)O)[C@@H](OS(=O)(=O)O)[C@@H](O[C@H]4[C@H](O)[C@@H](OS(=O)(=O)O)C(O)O[C@H]4C(=O)O)O[C@@H]3O)O[C@@H]2C(=O)O)O[C@H](COS(=O)(=O)O)[C@@H](O)[C@@H]1O (some centres undefined) [SODIUM HEPARIN] ? Its Hepatotoxicity (association with vascular disease) was 0

====

Measured Hepatotoxicity (granulomatous hepatitis) of individual entries
Conditions: human, Liver
Simply state the number, no unit and no words.

Study these solved cases before continuing.
So, COc1ccc2cc([C@H](C)C(=O)O)ccc2c1 [NAPROXEN] ? Its Hepatotoxicity (granulomatous hepatitis) was 1

So, NC(CO)(CO)CO [TROMETHAMINE] ? Its Hepatotoxicity (granulomatous hepatitis) was 0

So, NNCCc1ccccc1 [PHENELZINE] ? Its Hepatotoxicity (granulomatous hepatitis) was 0

New cases:
So, Nc1ccn([C@H]2CC[C@@H](CO)O2)c(=O)n1 [ZALCITABINE] ? Its Hepatotoxicity (granulomatous hepatitis) was 0

So, NCCCC(O)(P(=O)(O)O)P(=O)(O)O [ALENDRONIC ACID] ? Its Hepatotoxicity (granulomatous hepatitis) was 0

So, CN1C(C(=O)Nc2ccccn2)=C(O)c2sccc2S1(=O)=O [TENOXICAM] ? Its Hepatotoxicity (granulomatous hepatitis) was 0

====

Settings: human
Measured Hepatotoxicity (steatosis) of individual entries
Simply state the number, no unit and no words.

Study these solved cases before continuing.
So, CC(=O)N[C@@H](CS)C(=O)O [ACETYLCYSTEINE] ? Its Hepatotoxicity (steatosis) was 1

So, NNC(=O)c1ccncc1 [ISONIAZID] ? Its Hepatotoxicity (steatosis) was 1

So, N[C@@H](CSCC(=O)O)C(=O)O [CARBOCYSTEINE] ? Its Hepatotoxicity (steatosis) was 0

So, O=C1CC2(CCCC2)CC(=O)N1CCCCN1CCN(c2nsc3ccccc23)CC1 [TIOSPIRONE] ? Its Hepatotoxicity (steatosis) was 0

So, COc1ccc(OC)c(Cc2cnc3nc(N)nc(N)c3c2C)c1 [PIRITREXIM] ? Its Hepatotoxicity (steatosis) was 0

# evaluate next
So, O=C(O)c1cccs1 [THIOPHENE CARBOXYLIC ACID] ? Its Hepatotoxicity (steatosis) was 0

====

Test: Highest frequency of moderate liver toxicity observed during clinical trials, expressed as a percentage. [column '% BIOL' in source]
Conditions: human
Measured Hepatotoxicity (moderate) of individual entries
Please make sure the unit comes right after the number.

Study these solved cases before continuing.
So, CC(C)[C@@H]1NC(=O)[C@H](CCCCN)NC(=O)[C@@H](Cc2c[nH]c3ccccc23)NC(=O)[C@H](Cc2ccc(O)cc2)NC(=O)[C@@H](NC(=O)[C@H](N)Cc2ccc3ccccc3c2)CSSC[C@@H](C(=O)N[C@H](C(N)=O)[C@@H](C)O)NC1=O [LANREOTIDE] ? Its Hepatotoxicity (moderate) was 0%

So, `CN1CCC(=C2c3ccccc3CCc3sccc32)CC1` ? Its Hepatotoxicity (moderate) was 0%

So, `COc1cccc2c1C(=O)c1c(O)c3c(c(O)c1C2=O)C[C@@](O)(C(=O)CO)C[C@@H]3O[C@H]1C[C@H](N)[C@H](O[C@@H]2CCCCO2)[C@H](C)O1` ? Its Hepatotoxicity (moderate) was 1.1%

So, `C[C@]12C=CC(=O)C=C1CC[C@@H]1[C@@H]2[C@@H](O)C[C@@]2(C)[C@H]1CC[C@]2(O)C(=O)CO` ? Its Hepatotoxicity (moderate) was 0%

So, `CN1CCN(c2c(F)cc3c(=O)c(C(=O)O)cn(CCF)c3c2F)CC1` ? Its Hepatotoxicity (moderate) was 8.3%

New cases:
So, `CCN[C@@H](C)Cc1cccc(C(F)(F)F)c1` ? Its Hepatotoxicity (moderate) was 0%

So, `NCC[C@H](O)C(=O)N[C@@H]1C[C@H](N)[C@@H](O[C@H]2O[C@H](CN)CC[C@H]2N)[C@H](O)[C@H]1O[C@H]1O[C@H](CO)[C@@H](O)[C@H](N)[C@H]1O` ? Its Hepatotoxicity (moderate) was 27.3%

So, `Cc1ncc(CSSCc2cnc(C)c(O)c2CO)c(CO)c1O` ? Its Hepatotoxicity (moderate) was 1.4%

====

Details: human
VALUE_KIND: Hepatotoxicity (steatosis)
Simply state the number, no unit and no words.

So, `O=C(CCCN1CCC(O)(c2ccc(Br)cc2)CC1)c1ccc(F)cc1` ? Its Hepatotoxicity (steatosis) was 0

So, `CC(C)[C@@H](CC[C@@H](C)[C@H]1CC[C@H]2[C@@H]3[C@H](O)C[C@H]4C[C@@H](NCCCNCCCCN)CC[C@]4(C)[C@H]3CC[C@]12C)OS(=O)(=O)O` ? Its Hepatotoxicity (steatosis) was 0

====

Measured Hepatotoxicity (cytolytic) of individual entries
Conditions: human
Simply state the number, no unit and no words.

Study these solved cases before continuing.
So, `O=C(CCCN1CCC(C(=O)c2ccc(F)cc2)CC1)c1ccc(F)cc1` ? Its Hepatotoxicity (cytolytic) was 0

So, CN(C)CCC=C1c2ccccc2COc2ccccc21 [DOXEPIN] ? Its Hepatotoxicity (cytolytic) was 2

So, NC(CO)C(=O)NNCc1ccc(O)c(O)c1O (stereo not drawn) [BENSERAZIDE] ? Its Hepatotoxicity (cytolytic) was 0

So, `CC[C@]1(O)C[C@@H]2CN(CCc3c([nH]c4ccccc34)[C@@](C(=O)OC)(c3cc4c(cc3OC)N(C)[C@H]3[C@@](O)(C(=O)OC)[C@H](OC(C)=O)[C@]5(CC)C=CCN6CC[C@]43[C@@H]65)C2)C1` ? Its Hepatotoxicity (cytolytic) was 0

So, `CCn1cc(C(=O)O)c(=O)c2cc(F)c(N3CCNCC3)nc21` ? Its Hepatotoxicity (cytolytic) was 0

So, `CCCCN/C(=C1/C=C(Cl)C=CC1=O)c1ccccc1Cl` ? Its Hepatotoxicity (cytolytic) was 0

So, `C[C@H]1C[C@H]2[C@@H]3CCC4=CC(=O)C=C[C@]4(C)[C@@]3(F)[C@@H](O)C[C@]2(C)[C@@]1(O)C(=O)CO` ? Its Hepatotoxicity (cytolytic) was 0

# evaluate next
So, N[C@@H](C(=O)N[C@@H]1C(=O)N2C(C(=O)O)=C(Cl)CC[C@H]12)c1ccccc1 [LORACARBEF ANHYDROUS] ? Its Hepatotoxicity (cytolytic) was 1

====

Measured Hepatotoxicity (chronic liver disease) of individual entries
Details: human, serum, 4383 h
Simply state the number, no unit and no words.

Study these solved cases before continuing.
So, `Clc1ccc2nsnc2c1NC1=NCCN1` ? Its Hepatotoxicity (chronic liver disease) was 0

So, `CN1CCN(CCCN2c3ccccc3Sc3ccccc32)CC1` ? Its Hepatotoxicity (chronic liver disease) was 0

So, `CO/N=C(\C(=O)N[C@@H]1C(=O)N2C(C(=O)O)=C(CSc3nnnn3C)CS[C@H]12)c1csc(N)n1` ? Its Hepatotoxicity (chronic liver disease) was 0

So, `Cc1nnc(SCC2=C(C(=O)O)N3C(=O)[C@@H](NC(=O)Cn4cnnn4)[C@H]3SC2)s1` ? Its Hepatotoxicity (chronic liver disease) was 0

So, NNc1nncc2ccccc12 [HYDRALAZINE] ? Its Hepatotoxicity (chronic liver disease) was 3

# evaluate next
So, CCOc1ccccc1OCC1CNCCO1 (stereo unspecified) ? Its Hepatotoxicity (chronic liver disease) was 0
